conditions: in isopropanol, 288.15 K
Reported endpoint: solubility (mole fraction)
Field format: numeric only.

Return reported solubility (mole fraction); argument: CC1(C)S[C@@H]2[C@H](NC(=O)[C@H](NC(=O)N3CCNC3=O)c3ccccc3)C(=O)N2[C@H]1C(=O)O
0.000132

----------
details: in ethyl acetate, 278.15 K
Reported endpoint: solubility (mole fraction)
Field format: numeric only.

Return reported solubility (mole fraction); argument: CC1(C)S[C@@H]2[C@H](NC(=O)[C@H](NC(=O)N3CCNC3=O)c3ccccc3)C(=O)N2[C@H]1C(=O)O
0.000219

----------
settings: in THF, 308.15 K
Reported endpoint: solubility (mole fraction)
Field format: numeric only.

Return reported solubility (mole fraction); argument: CC1(C)S[C@@H]2[C@H](NC(=O)[C@H](NC(=O)N3CCNC3=O)c3ccccc3)C(=O)N2[C@H]1C(=O)O
0.00199

----------
conditions: in acetone, 323.15 K
Reported endpoint: solubility (mole fraction)
Field format: numeric only.

Return reported solubility (mole fraction); argument: CC1(C)S[C@@H]2[C@H](NC(=O)[C@H](NC(=O)N3CCNC3=O)c3ccccc3)C(=O)N2[C@H]1C(=O)O
0.00223

----------
conditions: in isopropanol, 318.15 K
Reported endpoint: solubility (mole fraction)
Field format: numeric only.

Return reported solubility (mole fraction); argument: CC1(C)S[C@@H]2[C@H](NC(=O)[C@H](NC(=O)N3CCNC3=O)c3ccccc3)C(=O)N2[C@H]1C(=O)O
0.000456

----------
conditions: in ethanol, 303.15 K
Reported endpoint: solubility (mole fraction)
Field format: numeric only.

Return reported solubility (mole fraction); argument: CC1(C)S[C@@H]2[C@H](NC(=O)[C@H](NC(=O)N3CCNC3=O)c3ccccc3)C(=O)N2[C@H]1C(=O)O
0.00165

----------
conditions: in THF, 293.15 K
Reported endpoint: solubility (mole fraction)
Field format: numeric only.

Return reported solubility (mole fraction); argument: CC1(C)S[C@@H]2[C@H](NC(=O)[C@H](NC(=O)N3CCNC3=O)c3ccccc3)C(=O)N2[C@H]1C(=O)O
0.00149

----------
conditions: in acetonitrile, 278.15 K
Reported endpoint: solubility (mole fraction)

Return reported solubility (mole fraction); argument: CC1(C)S[C@@H]2[C@H](NC(=O)[C@H](NC(=O)N3CCNC3=O)c3ccccc3)C(=O)N2[C@H]1C(=O)O
0.000491

----------
settings: in isopropanol, 278.15 K
Reported endpoint: solubility (mole fraction)
Field format: numeric only.

Return reported solubility (mole fraction); argument: CC1(C)S[C@@H]2[C@H](NC(=O)[C@H](NC(=O)N3CCNC3=O)c3ccccc3)C(=O)N2[C@H]1C(=O)O
9.02e-05

----------
conditions: in methanol, 318.15 K
Reported endpoint: solubility (mole fraction)
Field format: numeric only.

Return reported solubility (mole fraction); argument: CC1(C)S[C@@H]2[C@H](NC(=O)[C@H](NC(=O)N3CCNC3=O)c3ccccc3)C(=O)N2[C@H]1C(=O)O
0.00142

----------
conditions: in acetonitrile, 323.15 K
Reported endpoint: solubility (mole fraction)

Return reported solubility (mole fraction); argument: CC1(C)S[C@@H]2[C@H](NC(=O)[C@H](NC(=O)N3CCNC3=O)c3ccccc3)C(=O)N2[C@H]1C(=O)O
0.00156

----------
conditions: in acetonitrile, 283.15 K
Reported endpoint: solubility (mole fraction)
Field format: numeric only.

Return reported solubility (mole fraction); argument: CC1(C)S[C@@H]2[C@H](NC(=O)[C@H](NC(=O)N3CCNC3=O)c3ccccc3)C(=O)N2[C@H]1C(=O)O
0.000551
